Protocol Text: NCI Yeast Anticancer Drug Screen. Data for the mlh1 rad18 strain (AID 175)
Condition Info: S. cerevisiae mlh1 rad18 strain growth inhibition; at 50.0 µM; stronger effect = higher value
The panel holds about 79,000 compounds, 15% with a hit somewhere; the sample as a whole holds those more often.
Assay Endpoint: growth inhibition (%)

CCCCCCCCCC/C=C/c1c(C)[nH]c2ccccc2c1=O : -11.1
O=c1[nH][nH]c(=O)c2c1ccc1oc3ccccc3c12 : 4.4
COc1cc2c(cc1N)-c1ccc(N)cc1C2O (stereo not drawn) : 1.05
COc1ccc(/C=N/Nc2c([N+](=O)[O-])cc(C)cc2[N+](=O)[O-])cc1 : 7.8
CCN1c2ccccc2CC(CCN(C)Cc2ccccc2)(C(N)=O)c2ccccc21 (stereo not drawn) : -6.05
C[N+]1(C)CCC(O)C(c2ccccc2)C1 (stereo not drawn) : -0.7
c1ccc(C2(c3ccccc3)SC2(c2ccccc2)c2ccccc2)cc1 : -6.65
N#CC(CC(=O)c1ccccc1)c1ccccc1Cl (stereo not drawn) : 22
Cn1c([N+](=O)[O-])cnc1COS(=O)(=O)c1cccnc1 : 15.6
CC1(C)OC(=O)C=C([O-])O1.CC1(C)OC(=O)C=C([O-])O1.O=c1c(O)c(-c2ccc([O-])cc2[O-])oc2cc(O)cc(O)c12.[Ti+4] : -16.2
COCCCN1CC(=O)N2Cc3ccccc3CN2C(=O)C1 : -4.6
O/N=C(/Cc1ccccc1)CC(O)(C(F)(F)F)C(F)(F)F : 94.3
CCOC(OCC)C1CC=CCC1 (stereo not drawn) : -0.95
CCCCCCCC[N+](C)(C)CC#CC[N+](C)(C)CCCCCCCC : 44.1
C=CCn1c(=O)cc[nH]c1=S : -21.2
Cn1c(=O)c2c(nc(C[N+]3([O-])CCOCC3)n2C)n(C)c1=O : -27.9
N/C(=N\O)C(=O)c1ccccc1 : 3.95
CCOC(=O)c1nnc(-c2ccccc2)nc1Cl : 4
OC(c1ccccc1)C(Cl)c1ccccc1 (stereo not drawn) : 19.8
Cc1oc2nc(N(C)C)nc(NN)c2c1C : -13.8
CC1(C)C2CCC(CCOC(=O)COc3ccc(Cl)cc3Cl)C1C2 (stereo not drawn) : 29
Nc1ccccc1C(=O)CC1OC(=O)c2ccccc21 (stereo not drawn) : -13.7
Cc1ccc(C)c(CNC(=O)C2CCCCC2C(=O)O)c1 (stereo not drawn) : -3.2
CC(=O)Nc1ccc(S(=O)(=O)Nc2cc(Cl)cc(Cl)c2)cc1 : -7.1
Cc1ccncc1S(=O)(=O)O : 1.75
CC(C)=C1CCC(CN2CCOCC2)C1=O (stereo not drawn) : 87
CNC(=O)OCc1c(COC(=O)NC)c(-c2ccsc2)n2c1CCC2 : 8.25
C=CCC(C(=O)O)c1ccccc1 (stereo not drawn) : 1.75
NCCCc1ccc2oc3ccccc3c2c1 : 24.4
CC(C)C(N)C(=O)NO (stereo not drawn) : -7.3
OCc1ccc(F)cc1 : 3.45
Cc1nnc(N)s/c1=N/O : -11.6
O=C(NCCNc1ccccc1)C12CC3CC(CC(C3)C1)C2 : 9.5
OC/C(I)=C(I)\C(I)=C(\I)CO : 99.4
CC(=O)OCC(=O)[C@@]1(O)CC[C@H]2[C@@H]3CC[C@H]4[C@H](Br)C(=O)CC[C@]4(C)[C@H]3C(=O)C[C@@]21C : -23.9
CC1CC(=O)CCC2(C)C(OC(C)(C)C)CCC12 (stereo not drawn) : 21.1
O=[N+]([O-])c1c(O)c(O)c2ccccc2c1Nc1ccccc1 : -1.65
CC1(C)C2CCC(CCOC(=O)COc3ccc(Cl)cc3)C1C2 (stereo not drawn) : 12.6
CC[N+](C)(CCO)C(Cc1ccccc1)c1ccccc1 (stereo not drawn) : -1.7
O=S(=O)(NCCNS(=O)(=O)c1ccccc1)c1ccccc1 : 4
COc1ccc(Cc2cc3c(cc2OCC(=O)Nc2ccccn2)OCO3)cc1 : 8.1
CC(=O)OC1(C)C(=O)OC/C2=C/CN(C)CCC(OC(=O)C(O)(C(C)Cl)CC1C)C2=O (stereo not drawn) : -43.9
O=C1CC(c2ccccc2)C(c2ccccc2)C1C(=O)OC1CCCCC1 (stereo not drawn) : -15.4
Cc1cc(N=Nc2ccc(N=Nc3ccc(S(=O)(=O)O)cc3)cc2)cc(C(=O)O)c1O : 4.25
COc1nc(NC2OCC(OC(C)=O)C(OC(C)=O)C2OC(C)=O)c(-c2csc(N)n2)c(=O)n1C (stereo not drawn) : 6.85
CC(C)(C)C1=Cc2cc3cc(C(C)(C)C)[nH]c(=O)c3cc2S(=O)(=O)N1 : -20.9
C=CCOC(C)OCC=C : -0.15
Cc1sc2nc3n(c(=O)c2c1C)N=C(c1ccc([N+](=O)[O-])cc1)CS3 : -8.1
